Molecular target: T1, PUF4 RNA-binding domain (Saccharomyces cerevisiae, UniProt P25339 537-888)
T1 sequence: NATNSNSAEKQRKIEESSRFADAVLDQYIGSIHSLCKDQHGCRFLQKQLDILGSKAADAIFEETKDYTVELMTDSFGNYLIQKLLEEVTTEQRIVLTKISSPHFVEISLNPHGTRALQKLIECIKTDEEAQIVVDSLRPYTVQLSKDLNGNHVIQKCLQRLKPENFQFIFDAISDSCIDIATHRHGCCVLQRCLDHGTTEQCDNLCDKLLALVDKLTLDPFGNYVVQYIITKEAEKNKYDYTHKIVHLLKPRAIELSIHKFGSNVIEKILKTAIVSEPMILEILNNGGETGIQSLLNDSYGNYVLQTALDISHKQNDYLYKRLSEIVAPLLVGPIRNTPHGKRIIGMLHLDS
Assay: Mg; RNA-MaP; 20 mM Na-HEPES pH 7.4, 30 mM KOAc, 0.75 mM MgCl2, 0.1% Tween-20, 5% glycerol, 0.1 mg/mL BSA, 2 mM DTT; 25 C; 0.0125-409.6 nM protein
Settings: tags: N-His6-TEV cleaved; C-SNAP kept, Cy3B-labelled; label: tethered on chip by stalled RNA polymerase

Binder: UCUCUUCCACACUAUUACCUCUCUU (ssRNA) [Id_ii_S1_P4E.4_K4.3_C4.2_[T-1C]_H4.3_A4.1_F4.1_T4.2_[G10C]_[T11C]]
Kd: > 2300 nM
--
Binder: Id_ii_S2_P5E.4_K5.3_C5.2_[T-1A]_H5.3_A5.1_F5.1_T5.2_[T11C]_[A12T] (ssRNA) RNA: UUUGAUUAAUAUGAUAUCGUUCUUUCUCAACACUUAUUACUUUCUUUCUCGAUAUCAUAUUAAUCUUU
Kd: > 2300 nM
--
Binder: Ie_S2_P5E.1_K5.1_C5.1_H5.1_A5.1_[+6TCTC]_F5.1_T5.1 (ssRNA) RNA: UUUGAUUAAUAUGAUAUCGUUCUUUCUUGUAUUUCUCAUUAUUCUUUCUCGAUAUCAUAUUAAUCUUU
Kd: 75.2 nM
--
Binder: UCUCUUCGUGUAUUAUCUCUU (ssRNA) [Ib_S1_P4E.1_K4.1_C4.1_H4.1_[T1C]_[A4G]_A4.1_F4.1_T4.1]
Kd: 33.2 nM
--
Binder: UCUCUUUGUAAGCUCUCUCUU (ssRNA) [Ic_S1_P4E.1_K4.1_C4.1_H4.1_A4.1_[T5A]_[A6G]_[T7C]_F4.1_[A9C]_T4.1]
Kd: 1840 nM
--
Binder: UCUCUUUGUAUAUUAUUAUUUCUCUU (ssRNA) [Id_ii_S1_P5E.3_K5.2_C5.2_[C-2T]_[T-1G]_H5.2_A5.1_F5.1_T5.2_[A12T]]
Kd: 0.826 nM
--
Binder: Ic_S2_P5E.1_K5.1_C5.1_H5.1_A5.1_[T5A]_[A7T]_F5.1_[T8C]_[T9A]_[A10C]_T5.1 (ssRNA) RNA: UUUGAUUAAUAUGAUAUCGUUCUUUCUUGUAAUUCACUUCUUUCUCGAUAUCAUAUUAAUCUUU
Kd: 599 nM
--
Binder: Id_ii_S4_P3E.3_K3.2_C3.2_[C-2T]_[T-1A]_H3.2_A3.1_F3.1_T3.2_[T9A]_[A10C] (ssRNA) RNA: UUUGACAACUGAUCGUUCUUUCUUAUAUAUAUAACUUCUUUCUCGAUCAGUUGUCUUU
Kd: 326 nM
--
Binder: Id_ii_S2_P4E.2_K4.1_C4.2_[C-2T]_[T-1C]_H4.1_A4.1_F4.1_T4.2_[G10T]_[T11C] (ssRNA) RNA: UUUGAUUAAUAUGAUAUCGUUCUUUCUUCUGUAUAUUAUCUUCUUUCUCGAUAUCAUAUUAAUCUUU
Kd: 0.305 nM
--
Binder: UCUCUUUGUAUAAAUAUCUCUU (ssRNA) [Ib_S1_P5E.1_K5.1_C5.1_H5.1_A5.1_[T6A]_F5.1_[T8A]_T5.1]
Kd: 11.7 nM
--
Binder: UCUCUUUGUCUCAUUAUUAUCUCUU (ssRNA) [Ie_S1_P5E.1_K5.1_C5.1_H5.1_[+3CTC]_A5.1_F5.1_T5.1]
Kd: 36.6 nM
--
Binder: ACAAACAUACACUAUUAUAACAAAC (ssRNA) [Id_ii_S3_P4E.4_K4.3_C4.2_[C-2A]_H4.3_A4.1_F4.1_T4.2_[G10T]_[T11A]]
Kd: 902 nM
